# Test system: HOP-92 NSCLC
# test.protocol: NCI tumour cell line growth inhibition, 48 h
measured.attribute: TGI

In the examples that follow, each entry is paired with its recorded TGI.
{"columns": ["structure.smiles.string", "TGI"],
 "data": [
  ["CC1=NN(C(=O)c2ccc(Cl)cc2)C(=O)/C1=C/c1ccc(O)cc1", "> 100 µM"],
  ["OC(C/C(=N\\N=C(/CC(O)(C(F)(F)F)C(F)(F)F)c1ccccc1)c1ccccc1)(C(F)(F)F)C(F)(F)F", "> 10 µM"]
]}

Then there is this compound:
TGI lookup needed for O=C(NCP(=O)(O)O)c1cccnc1 , thanks.
> 100 µM
